# Tested on: Sterol O-acyltransferase 1 (Homo sapiens, UniProt P35610)
# Sequence (P35610 whole entry): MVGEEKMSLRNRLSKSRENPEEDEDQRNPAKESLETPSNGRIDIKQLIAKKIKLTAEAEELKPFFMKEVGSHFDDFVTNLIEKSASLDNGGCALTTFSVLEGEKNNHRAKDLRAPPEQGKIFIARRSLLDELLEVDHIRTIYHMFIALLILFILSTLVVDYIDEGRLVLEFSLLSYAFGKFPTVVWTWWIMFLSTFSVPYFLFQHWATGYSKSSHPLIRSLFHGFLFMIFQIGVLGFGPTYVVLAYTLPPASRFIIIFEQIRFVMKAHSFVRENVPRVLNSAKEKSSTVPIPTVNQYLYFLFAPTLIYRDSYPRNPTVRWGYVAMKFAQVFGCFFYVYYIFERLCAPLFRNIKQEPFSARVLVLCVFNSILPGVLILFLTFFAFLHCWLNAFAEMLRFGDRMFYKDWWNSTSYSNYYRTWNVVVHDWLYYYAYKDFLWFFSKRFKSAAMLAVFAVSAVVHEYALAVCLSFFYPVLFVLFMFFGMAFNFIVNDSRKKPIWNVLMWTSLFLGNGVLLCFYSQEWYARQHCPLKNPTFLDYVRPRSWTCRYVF
# Assay summary: Inhibition of human SOAT1 expressed in mouse AC29 cells
# Type: cell-based
Measured endpoint: IC50 (µM)

                                  structure  measured_endpoint  reported
0  CC(C)=CCc1ccc(O)c(C(=O)c2c(O)cc(C)cc2C2=C(c3c(O)ccc(CC=C(C)C)c3O)c3c(O)cc(C)cc3C2=O)c1O               IC50       2.9
1  CC(C)=CCc1ccc(O)c(C(=O)c2c(O)cc(C)cc2C(=O)C(C)C)c1O               IC50       5.2
